Catalogue of RUNX1 binding intensity readings, one per entry.
# Assayed Target: RUNX1 (UniProt Q01196)
# Sequence (Q01196 whole entry): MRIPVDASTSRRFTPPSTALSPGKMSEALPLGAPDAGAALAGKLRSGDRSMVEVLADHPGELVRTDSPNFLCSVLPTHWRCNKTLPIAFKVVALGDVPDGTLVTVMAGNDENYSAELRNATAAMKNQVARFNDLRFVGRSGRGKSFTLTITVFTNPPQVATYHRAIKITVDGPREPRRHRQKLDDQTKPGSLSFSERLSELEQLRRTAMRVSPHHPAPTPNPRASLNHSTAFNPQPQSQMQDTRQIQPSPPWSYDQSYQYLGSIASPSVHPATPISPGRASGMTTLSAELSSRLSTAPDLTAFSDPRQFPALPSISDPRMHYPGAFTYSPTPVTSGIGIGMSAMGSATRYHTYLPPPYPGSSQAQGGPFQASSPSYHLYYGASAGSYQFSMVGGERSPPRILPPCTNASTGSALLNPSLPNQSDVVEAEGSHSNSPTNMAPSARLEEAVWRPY
# Protocol Details: RUNX1 binding intensity (PBM fluorescence), RUNX1 alone (arbitrary fluorescence units); higher = stronger binding;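 also: Full-length recombinant human RUNX1 bound to double-stranded 36-bp genomic probes on a high-density microarray, scored as Alexa488 fluorescence per spot via anti-RUNX1 antibody, median of four replicate spots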
# Condition Summary: RUNX1 concentration 2 nM; ETS1 concentration 0 nM
Readout Label: RUNX1 binding intensity

AGTAGGATGGGAGGAAGTGGTTTGTAAGAGGAGGAC
769
GCTGATAAAACAGGATGTGGTAAAGAAGCCGGCCAA
817
TCTGGGGGAGGGGAAGGATGTGGTTTGCAGAGCGGA
1020
CACCTGGCCCGGACGGCTGCGGTCTGGAGGGCTGTC
1650
TTCACAACACAGGATGTGCGGTATTATACGGCAAAG
898
TGCGCCGGAAGTGCATGAGCTGCCGATGTGGTGCTT
715
CTTAGTGGGGCAGGATGTGGTCAGGGAAGCTGATCT
836
TGGAACAATGCTGCTTCCTGTGGGTGTCCCCCGGCC
698
GAGGACTTCCGGGTGGGTGTGATATCTGCGGGCCCG
760
GCGGAGGCGGAAGTCGTGCTGCTGCTGACCACGGCT
741
CCCGCCACTTCCCTGCCTCTGCGGGAGCCCCCCAGC
938
GAATGACAGAAGCGGAAACCACATGAAAAAGGTGTT
913

* * *

# Assayed Target: RUNX1 (UniProt Q01196)
# Protocol Details: RUNX1 binding intensity (PBM fluorescence), RUNX1 alone (arbitrary fluorescence units); higher = stronger binding
# Condition Summary: RUNX1 concentration 2 nM; ETS1 concentration 0 nM
Output fulfilled for RUNX1 binding intensity not less than 800; output not fulfilled otherwise.

TTTCTGACTTCCTGTGTGCTTCAGAAACCTCAATGA
fulfilled
AACAAACCGGATGGGGTTGCCACCCGCAATCTTGTC
fulfilled
GGGGCCTCTGCTACTTCCTAGACCGCAAAATGGAGA
fulfilled
TGGGCTTTGCAGGAAGCTGTGGTTCACCTACAGCCT
not fulfilled
CCCTCATCTTCCTGCTTCAGGCAGCTGTGGTTTACC
fulfilled
GTTGAAATTGAGCTTCCGTTGGTGGTTAACCCTCTG
fulfilled
TTCAGGTGACTTCCGGCCGGACCGCTGAGGACGCGG
not fulfilled
TTACCCCGGCGGAACGGAGGCCTGCGGTCGCGGCGG
fulfilled
AGGCCCGGATACCCGCCCCCAAAACCGCGTCCACAA
fulfilled
TATGTGTTTTAGGCAGGATGTGGGTTTTAGTCTTTC
fulfilled
CTTACCTACAGTTCCGCTTGCTGTGGTTTCAGTTAC
fulfilled
AAATGTGGCCGGATGCTCTGTGGGCGGGCGGCAGCT
not fulfilled
GACAATGAGCGCACAGGATGTGGTTTGGCGGCAGGG
fulfilled
CCCCACATCCGGGGGCCGGGGCCGGGCTGTGGGCTT
not fulfilled
CACCTCCTCTCCGGATGCGGTTTGTTCTGCTTGTAG
fulfilled
AGCGCCACACTTCCGCTTTGCGGCAGTGTGCGCCCC
not fulfilled
GAAGCAGACAGGAAGTGGGTCTGAGCGGTGGAGGGA
not fulfilled
TCCTTTTCCGGTGGCGGCGCCGCGCGGTGAGGTTGT
not fulfilled
TTCATTTCTACCTTCCTGTGGTCTTTTTGCCTCCGA
fulfilled
